Target: Recombinant Human MMP-13 (Homo sapiens, UniProt P45452)
Construct: purchased R&D systems 511-MM
Experiment: MMP-13 inhibitory activity (MMP-13 specific fluorescent substrate with quencher)
Format: biochemical
Settings: Recombinant Human MMP-13, fluorescent substrate, 25° C. for 1 h; read-out: IC50 MMP13 (Experimental Example 3)
pIC50: −log10 of the molar value.
property name: pIC50

Here are 6 compounds together with their reported answers.
O=C(O)C1(NS(=O)(=O)c2ccc(-c3ccc(Cl)cc3)cc2)CC1c1ccc(Oc2ccccc2)cc1 (stereo not shown) [Example 1-16] ... > 7.00
CCCc1cc(-c2ccc(S(=O)(=O)N[C@@]3(C(=O)O)C[C@@H]3c3ccccc3)s2)no1 [Example 2-90] ... > 7.00
CC(C)(O)COc1ccccc1C1CC1(NS(=O)(=O)c1ccc(-c2ccc(Cl)cc2)s1)C(=O)O (stereo not shown) [Example 2-25] ... > 6.00
O=C(O)C1(CS(=O)(=O)c2ccc(-c3ccc(Cl)cc3)s2)CC1c1ccccc1 (stereo not shown) [Example 2-187] ... ≤ 5.00
O=C(O)C1(NS(=O)(=O)c2ccc(-c3ccc(Cl)cn3)s2)CC1c1ccccc1CO (stereo not shown) [Example 2-63] ... > 7.00
O=C(O)C1(NS(=O)(=O)c2ccc(-c3ccc4c(c3)Cc3ccccc3-4)cc2)CC1c1ccccc1 (stereo not shown) [Example 1-54] ... > 6.00

Next compound, please.
Exercise: Param readout= pIC50; system= Recombinant Human MMP-13 (Homo sapiens, UniProt P45452); entry= C[C@]1(c2ccccc2)C[C@@]1(NS(=O)(=O)c1ccc(-c2cc(C(F)(F)F)on2)s1)C(=O)O [Example 2-6] ; returns value.
Key: > 6.00

---

Molecular target: aggrecanase-1 (Homo sapiens, UniProt O75173)
Assay: Aggrecanase-1 inhibitory action (Particle Assay, GAG release from aggrecan-containing polyacrylamide particles)
Format: biochemical
Settings: aggrecanase-1 inhibitory action; read-out: IC50 AG1 (Experimental Example 1)
property name: IC50

Here are 6 compounds together with their reported answers.
CN(C)c1cccc([C@H]2C[C@@]2(NS(=O)(=O)c2ccc(-c3ccc(Cl)cc3)s2)C(=O)O)c1 ... < 100 nM
O=C(O)C1(NS(=O)(=O)c2ccc(-c3ccc(Cl)cc3)s2)CC1COc1ccccc1 (stereo not shown) ... < 1000 nM
Cc1cnn(-c2ccc(S(=O)(=O)N[C@@]3(C(=O)O)C[C@@H]3c3ccccc3)s2)c1 ... < 1000 nM
O=C(Cc1ccccc1C1CC1(NS(=O)(=O)c1ccc(-c2ccc(Cl)cc2)s1)C(=O)O)N1CCOCC1 (stereo not shown) ... < 1000 nM
O=C(O)[C@]1(NS(=O)(=O)c2ccc3c(c2)Cc2cc(Br)ccc2-3)C[C@@H]1c1ccccc1 ... < 100 nM
O=C(O)[C@]1(NS(=O)(=O)c2ccc(-c3cc(C(F)(F)F)on3)s2)C[C@@H]1c1ccccc1Br ... < 1000 nM

Next compound, please.
Exercise: Data request, read-out IC50, for O=C(NCCO)c1cccc(C2CC2(NS(=O)(=O)c2ccc(-c3ccc(Cl)cc3)s2)C(=O)O)c1 (stereo not shown)
Key: < 1000 nM

---

Target: Recombinant Human MMP-13 (Homo sapiens, UniProt P45452)
Construct: purchased R&D systems 511-MM
Test: MMP-13 inhibitory activity (MMP-13 specific fluorescent substrate with quencher)
Format: biochemical
Conditions: Recombinant Human MMP-13, fluorescent substrate, 25° C. for 1 h; read-out: IC50 MMP13 (Experimental Example 3)
property name: IC50

Here are 3 compounds together with their reported answers.
O=C(O)C1(NS(=O)(=O)c2ccc(-c3ccc(Cl)cc3)s2)CC1COc1ccccc1 (stereo not shown) [Example 2-52] ... < 1000 nM
O=C(O)[C@]1(NS(=O)(=O)c2ccc(-c3cc(C(F)(F)F)on3)s2)[C@H](CO)[C@@H]1c1ccccc1 (relative stereo) [Example 2-10] ... < 100 nM
O=C(O)C1(NS(=O)(=O)N2CCN(c3ccc(F)cc3)CC2)CC1c1ccccc1 (stereo not shown) [Example 2-67] ... < 1000 nM

Exercise: Data request, read-out IC50, for O=C(O)C1(NS(=O)(=O)c2ccc(-c3ccc(Cl)cc3)cc2)CC1c1cccc(NCc2cnc[nH]2)c1 (stereo not shown) [Example 1-90]
Key: < 100 nM

Exercise: Data request, read-out IC50, for COc1cccc(C2CC2(NS(=O)(=O)c2ccc(-c3ccc(Cl)cc3)cc2)C(=O)O)c1 (stereo not shown) [Example 1-12]
Key: < 100 nM

Exercise: Data request, read-out IC50, for O=C(O)C1(NS(=O)(=O)c2ccc(-c3ccc(Cl)cc3)s2)CC1c1ccc(OCc2ccccc2)cc1 (stereo not shown) [Example 2-225]
Key: < 1000 nM

Exercise: Data request, read-out IC50, for O=C(O)[C@@]1(NS(=O)(=O)c2ccc(-c3ccc(Cl)cc3)s2)C[C@H]1c1ccccc1 [Example 2-192]
Key: < 1000 nM

---

Molecular target: aggrecanase-1 (Homo sapiens, UniProt O75173)
Sequence (O75173 213-837): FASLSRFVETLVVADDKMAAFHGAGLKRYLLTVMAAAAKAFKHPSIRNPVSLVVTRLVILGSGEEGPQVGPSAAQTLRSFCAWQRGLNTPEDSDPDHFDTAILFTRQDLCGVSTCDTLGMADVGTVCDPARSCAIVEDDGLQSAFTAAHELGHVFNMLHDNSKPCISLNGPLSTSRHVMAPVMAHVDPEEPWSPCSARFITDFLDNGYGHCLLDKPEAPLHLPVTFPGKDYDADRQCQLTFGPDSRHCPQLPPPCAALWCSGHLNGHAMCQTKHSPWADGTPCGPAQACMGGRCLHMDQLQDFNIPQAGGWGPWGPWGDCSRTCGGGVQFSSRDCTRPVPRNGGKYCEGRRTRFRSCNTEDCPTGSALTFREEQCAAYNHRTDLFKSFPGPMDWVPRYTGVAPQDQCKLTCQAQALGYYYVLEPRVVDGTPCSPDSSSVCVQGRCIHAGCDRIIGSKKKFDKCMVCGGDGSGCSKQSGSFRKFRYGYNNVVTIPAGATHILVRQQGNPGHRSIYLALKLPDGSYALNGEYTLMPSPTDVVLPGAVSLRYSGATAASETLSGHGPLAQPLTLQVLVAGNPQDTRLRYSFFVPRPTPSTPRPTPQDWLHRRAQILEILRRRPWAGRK
Assay: Aggrecanase-1 inhibitory action (Particle Assay, GAG release from aggrecan-containing polyacrylamide particles)
Format: biochemical
Conditions: aggrecanase-1 inhibitory action; read-out: IC50 AG1 (Experimental Example 1)
pIC50: −log10 of the molar value.
property name: pIC50

Here are 5 compounds together with their reported answers.
CN(C)c1cccc(C2CC2(NS(=O)(=O)c2ccc(-c3ccc(Cl)cc3)s2)C(=O)O)c1 (stereo not shown) ... > 7.00
CC1[C@H](c2ccccc2)[C@]1(NS(=O)(=O)c1ccc(-c2ccc(Cl)cc2)s1)C(=O)O (stereo partly shown) ... > 7.00
O=C(O)[C@]1(NS(=O)(=O)c2ccc3c(c2)Cc2cc(F)ccc2-3)C[C@@H]1c1ccccc1 ... > 6.00
O=C(O)C1(NS(=O)(=O)c2ccc(-c3ccc(Cl)cc3)s2)CC1(CO)c1ccccc1 (stereo not shown) ... > 6.00
O=C(O)[C@]1(NS(=O)(=O)/C=C/c2ccc(C(F)(F)F)cc2)C[C@@H]1c1ccccc1 ... ≤ 5.00

Exercise: Data request, read-out pIC50, for O=C(O)COc1cccc(C2CC2(NS(=O)(=O)c2ccc(-c3ccc(Cl)cc3)cc2)C(=O)O)c1 (stereo not shown)
Key: > 7.00

Exercise: Data request, read-out pIC50, for O=C(O)C1(NS(=O)(=O)c2ccc(-c3ccc(Cl)cc3)cc2)CC1c1cccc(OCCn2ccnc2)c1 (stereo not shown)
Key: > 6.00

---

Catalogue of IC50 values
Molecular target: aggrecanase-1 (Homo sapiens, UniProt O75173)
Assay: Aggrecanase-1 inhibitory action (Particle Assay, GAG release from aggrecan-containing polyacrylamide particles)
Type: biochemical
Details: Experimental Example 1; read-out: IC50 AG1

Here are 10 compounds together with their reported answers.
O=C(O)C1(NS(=O)(=O)c2ccc(-c3cc(C(F)(F)F)on3)s2)C2CCc3ccccc3C21 (stereo not shown) ... < 100 nM
CC1[C@H](c2ccccc2)[C@]1(NS(=O)(=O)c1ccc(-c2cn(C)cn2)s1)C(=O)O (stereo partly shown) ... < 1000 nM
CC1[C@H](c2ccccc2)[C@]1(NS(=O)(=O)N1CCN(c2ccc(Cl)cc2F)CC1)C(=O)O (stereo partly shown) ... < 1000 nM
CCOC(=O)c1cc(-c2ccc(S(=O)(=O)N[C@@]3(C(=O)O)C(C)[C@@H]3c3ccccc3)s2)no1 (stereo partly shown) ... < 1000 nM
CC1[C@H](c2ccccc2)[C@]1(NS(=O)(=O)N1CCN(c2ccc(Cl)nn2)CC1)C(=O)O (stereo partly shown) ... < 1000 nM
CC1[C@H](c2ccccc2)[C@]1(NS(=O)(=O)N1CCN(c2ccc(Cl)cc2)CC1)C(=O)O (stereo partly shown) ... < 1000 nM
CCOC(=O)c1cccc(-c2ccc(S(=O)(=O)N[C@@]3(C(=O)O)C[C@]3(C)c3ccccc3)s2)c1 ... ≥ 1000 nM
CC1(c2ccc(F)cc2)CC1(NS(=O)(=O)c1ccc(-c2cc(C(F)(F)F)on2)s1)C(=O)O (stereo not shown) [Example 2-339] ... < 100 nM
NCCCC1(c2ccccc2)CC1(NS(=O)(=O)c1ccc(-c2ccc(Cl)cc2)s1)C(=O)O (stereo not shown) ... < 1000 nM
CN(C)C(=O)CCc1ccc([C@H]2C[C@@]2(NS(=O)(=O)c2ccc(-c3cc(C(F)(F)F)on3)s2)C(=O)O)cc1 ... < 100 nM

Exercise: Data request, read-out IC50, for CC1[C@H](c2ccccc2)[C@]1(NS(=O)(=O)N1CCC(OCc2ccc(Cl)cc2)C1)C(=O)O (stereo partly shown)
Key: ≥ 1000 nM

Exercise: Data request, read-out IC50, for CC1[C@H](c2ccccc2)[C@]1(NS(=O)(=O)c1ccc(-c2ccc(Cl)c(F)c2)s1)C(=O)O (stereo partly shown)
Key: < 100 nM

Exercise: Data request, read-out IC50, for CC1[C@H](c2ccccc2)[C@]1(NS(=O)(=O)c1ccc(-c2ccc(C(F)(F)F)cc2)s1)C(=O)O (stereo partly shown)
Key: < 100 nM

Exercise: Data request, read-out IC50, for O=C(NC[C@H]1CCCO1)OCC1(c2ccccc2)CC1(NS(=O)(=O)c1ccc(-c2cc(C(F)(F)F)on2)s1)C(=O)O (stereo partly shown)
Key: < 1000 nM

Exercise: Data request, read-out IC50, for C[C@]1(c2ccccc2)C[C@@]1(NS(=O)(=O)c1ccc(-c2ccc(C(F)(F)F)cc2)s1)C(=O)O
Key: < 100 nM

Exercise: Data request, read-out IC50, for CN(C)C(=O)Cc1ccc([C@@H]2C[C@]2(NS(=O)(=O)c2ccc(-c3cc(C(F)(F)F)on3)s2)C(=O)O)cc1
Key: < 100 nM

Exercise: Data request, read-out IC50, for COCCN1CCN(S(=O)(=O)N[C@@]2(C(=O)O)C(C)[C@@H]2c2ccccc2)CC1 (stereo partly shown)
Key: ≥ 1000 nM

Exercise: Data request, read-out IC50, for CC1[C@H](c2ccccc2)[C@]1(NS(=O)(=O)c1ccc(-c2cc(C(F)F)on2)cc1)C(=O)O (stereo partly shown)
Key: < 100 nM

Exercise: Data request, read-out IC50, for NCc1ccc([C@@H]2C[C@]2(NS(=O)(=O)c2ccc(-c3cc(C(F)(F)F)on3)s2)C(=O)O)cc1
Key: < 1000 nM

Exercise: Data request, read-out IC50, for CC(C)S(=O)(=O)CC1(c2ccccc2)CC1(NS(=O)(=O)c1ccc(-c2ccc(Cl)cc2)s1)C(=O)O (stereo not shown)
Key: < 1000 nM

Exercise: Data request, read-out IC50, for O=C(CCc1ccc([C@H]2C[C@@]2(NS(=O)(=O)c2ccc(-c3cc(C(F)(F)F)on3)s2)C(=O)O)cc1)N1CCOCC1
Key: < 100 nM

Exercise: Data request, read-out IC50, for CC(=O)Nc1cccc(-c2ccc(S(=O)(=O)N[C@@]3(C(=O)O)C[C@]3(C)c3ccccc3)s2)c1
Key: < 1000 nM
